# credit: paper PMC13031064

- Assay Target: bHLH130-His (SmbHLH130) (Salvia miltiorrhiza, UniProt A0A0H3Y8V8 1-394)
- Measurement Description: EMSA
Measurement Label: binding result

CYP76AH1 probe (dsDNA) DNA 1: TATAATAGAACATTTGGGCGATGCTATATAATAGAACATTTGGGCGATGCTA DNA 2: TAGCATCGCCCAAATGTTCTATTATATAGCATCGCCCAAATGTTCTATTATA
binds
KSL1 probe (dsDNA) DNA 1: TGCATCATCTCATTTGGAGTTTAAAATGCATCATCTCATTTGGAGTTTAAAA DNA 2: TTTTAAACTCCAAATGAGATGATGCATTTTAAACTCCAAATGAGATGATGCA
binds
CPS1 probe (dsDNA) DNA 1: AATCATTTTTCATTTGACTGCCAAGGTAATCATTTTTCATTTGACTGCCAAGGT DNA 2: ACCTTGGCAGTCAAATGAAAAATGATTACCTTGGCAGTCAAATGAAAAATGATT
binds
DXS2 probe (dsDNA) DNA 1: TAAATCCTGACATTTGAATAGTATATTAAATCCTGACATTTGAATAGTATAT DNA 2: ATATACTATTCAAATGTCAGGATTTAATATACTATTCAAATGTCAGGATTTA
binds
